- target: human CD73 (Homo sapiens, UniProt P21589)
- Construct: purchased R&D Systems 5795-EN-010
- Sequence (P21589 27-549): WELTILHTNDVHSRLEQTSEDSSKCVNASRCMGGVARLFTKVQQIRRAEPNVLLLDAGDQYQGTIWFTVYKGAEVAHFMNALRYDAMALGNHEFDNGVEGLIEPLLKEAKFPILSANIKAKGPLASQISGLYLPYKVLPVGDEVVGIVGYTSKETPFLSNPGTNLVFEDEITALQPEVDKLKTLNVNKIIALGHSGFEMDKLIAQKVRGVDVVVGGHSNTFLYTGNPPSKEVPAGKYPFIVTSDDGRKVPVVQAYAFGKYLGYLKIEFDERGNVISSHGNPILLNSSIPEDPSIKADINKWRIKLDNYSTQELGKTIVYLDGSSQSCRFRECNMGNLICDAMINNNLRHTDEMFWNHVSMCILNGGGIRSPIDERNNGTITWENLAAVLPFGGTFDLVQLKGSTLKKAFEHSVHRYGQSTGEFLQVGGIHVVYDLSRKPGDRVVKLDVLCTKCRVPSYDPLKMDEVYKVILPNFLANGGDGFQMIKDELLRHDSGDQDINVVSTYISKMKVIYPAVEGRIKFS
- measurement protocol: Inhibition of 5′-Nucleotidase Activity of CD73 (Assay 1)
- Assay type: biochemical
- experimental setup: human CD73 4 ng/ml, 50 μM CMP, 20 min at RT, malachite green readout; read-out: Assay 1: IC50, inhibition of 5′-nucleotidase activity of CD73
pIC50: −log10 of the molar value.
property label: pIC50

1. Cc1nc(N)c2ncn([C@@H]3O[C@H](COC(C(=O)O)P(=O)(O)O)[C@@H](O)[C@H]3O)c2n1 (single isomer, unassigned) [Example 69a]; 6.00 to 7.00
2. CNC(=O)C(OC[C@H]1O[C@@H](n2ccc(=O)n(C)c2=O)[C@H](O)[C@@H]1O)P(=O)(O)O (some centres unmarked) [Example 31]; < 6.00
3. CCOC(=O)C(OC[C@H]1C[C@@H](n2nnc3c(NC[C@H]4CCOC4)nc(Cl)nc32)[C@H](O)[C@@H]1O)P(=O)(O)O (some centres unmarked) [Example 89]; > 7.00
4. CCOC(=O)[C@@H](OC[C@H]1C[C@@H](n2cnc3cccc(Br)c3c2=O)[C@H](O)[C@@H]1O)P(=O)(O)O (single isomer, unassigned) [Example 72a]; < 6.00
5. CCN(CC)C(=O)[C@@H](OC[C@H]1O[C@@H](n2cnc3c(N)nc(Cl)nc32)[C@H](O)[C@@H]1O)P(=O)(O)O (single isomer, unassigned) [Example 82]; > 7.00
6. CCOC(=O)[C@](CC(=O)O)(OC[C@H]1O[C@@H](n2cnc3c(N)nc(F)nc32)[C@H](O)[C@@H]1O)P(=O)(O)O (single isomer, unassigned) [Example 79]; 6.00 to 7.00
7. CCOC(=O)[C@H](OC[C@H]1O[C@@H](n2cnc3c(N)nc([C@@H]4NCCO4)nc32)[C@H](O)[C@@H]1O)P(=O)(O)O (single isomer, unassigned) [Example 51]; 6.00 to 7.00
8. CC(C)(C)OC(=O)[C@H](OC[C@H]1O[C@@H](n2cnc3c(N)nc(C#N)nc32)[C@H](O)[C@@H]1O)P(=O)(O)O (single isomer, unassigned) [Example 54]; > 7.00
9. CC(C)CS(=O)(=O)[C@H](OC[C@H]1O[C@@H](n2cnc3c(N)nc(Cl)nc32)[C@H](O)[C@@H]1O)P(=O)(O)O (single isomer, unassigned) [Example 13]; > 7.00
10. CCOC(=O)[C@H](OC[C@H]1O[C@@H](n2cnc3c(N)nc(-c4cc(F)cc(F)c4)nc32)[C@H](O)[C@@H]1O)P(=O)(O)O (single isomer, unassigned) [Example 41]; 6.00 to 7.00
11. Nc1nc(F)nc2c1ncn2[C@@H]1O[C@H](CO[C@H](C(=O)O)P(=O)(O)O)[C@@H](O)[C@H]1O [Example 53a]; < 6.00
12. CCNC(=O)C(OC[C@H]1C[C@@H](n2cnc3c(NCC)ncnc32)[C@H](O)[C@@H]1O)P(=O)(O)O (some centres unmarked) [Example 75]; < 6.00
13. Nc1nc(F)nc2c1ncn2[C@@H]1O[C@H](CO[C@@H](C(=O)O)P(=O)(O)O)[C@@H](O)[C@H]1O [Example 53]; > 7.00
14. Cn1c(=O)ccn([C@@H]2O[C@H](CO[C@@H](C(=O)O)P(=O)(O)O)[C@@H](O)[C@H]2O)c1=O (single isomer, unassigned) [Example 60]; < 6.00
15. COC(=O)C(SC[C@H]1O[C@@H](n2cnc3c(N)ncnc32)[C@H](O)[C@@H]1O)P(=O)(O)O (some centres unmarked) [Example 56]; < 6.00
16. COc1nc(OC)c2ncn([C@@H]3O[C@H](COC(C(=O)O)P(=O)(O)O)[C@@H](O)[C@H]3O)c2n1 (some centres unmarked) [Example 33a]; 6.00 to 7.00
17. CCOC(=O)[C@@H](OC[C@H]1O[C@@H](n2cnc3c(NC4CC4)nc(Cl)nc32)[C@H](O)[C@@H]1O)P(=O)(O)O (single isomer, unassigned) [Example 22a]; 6.00 to 7.00
18. O=C(O)C(OC[C@H]1C[C@@H](n2cnc3cccc(Cl)c3c2=O)[C@H](O)[C@@H]1O)C(=O)O [Example 74]; < 6.00
19. CNc1nc(Cl)nc2c1ncn2[C@@H]1O[C@H](COC(C)(C(=O)O)C(=O)O)[C@@H](O)[C@H]1O [Example 2]; 6.00 to 7.00
20. CC(C)(C)OC(=O)[C@@H](OC[C@H]1O[C@@H](n2cnc3c(N)nc(Cl)nc32)[C@H](O)[C@@H]1O)P(=O)(O)O (single isomer, unassigned) [Example 15a]; 6.00 to 7.00
21. O=C(O)C(Cc1ccc(F)cc1)(OC[C@H]1O[C@@H](n2cnc3c(NC4CCCC4)nc(Cl)nc32)[C@H](O)[C@@H]1O)C(=O)O [Example 97]; 6.00 to 7.00
22. CCNc1nc(Cl)nc2c1ncn2[C@@H]1O[C@H](CO[C@@](C)(C(=O)OCC)P(=O)(O)O)[C@@H](O)[C@H]1O [Example 29]; > 7.00
23. CCOC(=O)[C@H](OC[C@H]1O[C@@H](n2cnc3c(NC4CC4)nc(Cl)nc32)[C@H](O)[C@@H]1O)P(=O)(O)O (single isomer, unassigned) [Example 22]; > 7.00
